Molecular target: Fibroblast growth factor receptor 3 (Homo sapiens) (UniProt P22607);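 note: values reported are mean percent inhibition of FGFR3 activity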
Sequence (P22607 23-806 limits assumed): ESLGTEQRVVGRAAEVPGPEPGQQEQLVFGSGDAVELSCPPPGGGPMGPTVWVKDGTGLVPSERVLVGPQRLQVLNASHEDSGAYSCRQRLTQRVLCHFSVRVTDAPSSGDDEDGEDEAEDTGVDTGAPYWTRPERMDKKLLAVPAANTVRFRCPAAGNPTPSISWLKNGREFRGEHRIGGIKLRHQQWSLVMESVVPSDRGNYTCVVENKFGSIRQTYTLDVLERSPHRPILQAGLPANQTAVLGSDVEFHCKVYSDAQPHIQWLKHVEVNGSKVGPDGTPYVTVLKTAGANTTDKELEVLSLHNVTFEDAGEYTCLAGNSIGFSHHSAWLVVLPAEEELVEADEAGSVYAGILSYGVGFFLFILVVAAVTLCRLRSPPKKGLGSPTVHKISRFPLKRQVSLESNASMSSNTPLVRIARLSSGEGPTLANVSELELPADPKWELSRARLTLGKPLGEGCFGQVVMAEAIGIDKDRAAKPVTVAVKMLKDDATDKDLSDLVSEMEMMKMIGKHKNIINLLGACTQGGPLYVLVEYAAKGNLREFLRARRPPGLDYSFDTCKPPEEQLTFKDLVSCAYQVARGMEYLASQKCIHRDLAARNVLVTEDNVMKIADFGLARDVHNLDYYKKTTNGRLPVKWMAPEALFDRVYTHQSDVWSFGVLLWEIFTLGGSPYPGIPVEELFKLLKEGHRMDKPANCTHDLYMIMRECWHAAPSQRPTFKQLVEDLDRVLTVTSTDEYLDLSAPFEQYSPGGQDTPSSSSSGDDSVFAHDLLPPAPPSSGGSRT
Conditions: at 1 µM
# cutoff 7% applies to inhibition; >= gives true, < gives false

Exam item: decide whether the reported inhibition for Cc1ccc2c(c1)/C(=N/Nc1ccc(S(N)(=O)=O)cc1)C(=O)N2 is at least 7%. true

Exam item: decide whether the reported inhibition for OCc1ccc(-c2nc(-c3ccccn3)c(-c3ccc4c(c3)OCO4)[nH]2)cc1 is at least 7%. true

Exam item: decide whether the reported inhibition for COC(=O)Nc1nc2cc(Oc3ccc(NC(=O)Nc4cccc(Br)c4)cc3)ccc2[nH]1 is at least 7%. false

Exam item: decide whether the reported inhibition for O=S(=O)(CCOCc1ccc(-c2ccc3ncnc(Nc4ccc(OCc5cccc(F)c5)c(Cl)c4)c3c2)o1)c1ccccc1 is at least 7%. false

Exam item: decide whether the reported inhibition for COc1cc2ncn(-c3cc(OCc4ccccc4S(C)(=O)=O)c(C#N)s3)c2cc1OC is at least 7%. true

Exam item: decide whether the reported inhibition for CC(C)c1ccc(Nc2nccc(-c3cnn4ncccc34)n2)cc1 is at least 7%. false

Exam item: decide whether the reported inhibition for CN(C)C(=O)O[C@@H]1CN[C@@H](C#Cc2cc3ncnc(Nc4ccc(OCc5cccc(F)c5)c(Cl)c4)c3s2)C1 is at least 7%. false

Exam item: decide whether the reported inhibition for COc1cc(/C=N/Nc2ncnc3c2cnn3C(C)C)ccc1O is at least 7%. true

Exam item: decide whether the reported inhibition for Cc1ccc(NC(=O)CC2CC2)cc1-c1ccc(C(=O)NCC2CC2)cc1 is at least 7%. false

Exam item: decide whether the reported inhibition for Cc1nc(-c2ccccc2)n2nc(NCCCN3CCOCC3)ncc12 is at least 7%. false

Exam item: decide whether the reported inhibition for O=C(Nc1ccc(Oc2ccc3[nH]c(NC(=O)c4ccco4)nc3c2)cc1)Nc1cc(C(F)(F)F)ccc1F is at least 7%. true

Exam item: decide whether the reported inhibition for Nc1nccc(-c2c(-c3ccc(F)cc3)ncn2CCCN2CCOCC2)n1 is at least 7%. false

Exam item: decide whether the reported inhibition for CC(C)c1ccc2c(c1)NC(=O)/C2=N/Nc1ccc(S(N)(=O)=O)cc1 is at least 7%. false

Exam item: decide whether the reported inhibition for COc1ccc2ncnc(Nc3ccc(OCc4ccccc4)cc3)c2c1 is at least 7%. false

Exam item: decide whether the reported inhibition for CN(c1ccc(NC(=O)Nc2ccc(OC(F)(F)F)cc2)cc1)c1ccnc(Nc2cccc(S(N)(=O)=O)c2)n1 is at least 7%. true

Exam item: decide whether the reported inhibition for [O-][S+]1CCN(Cc2ccc(-c3ccc4ncnc(Nc5ccc(OCc6ccccc6)c(Cl)c5)c4c3)o2)CC1 is at least 7%. false

Exam item: decide whether the reported inhibition for NC(=O)c1cccc(Nc2nccc(Nc3cccc(F)c3)n2)c1 is at least 7%. true

Exam item: decide whether the reported inhibition for CN1CCN(C(=O)c2ccc(NC(=O)Nc3ccc(N(C)c4ccnc(Nc5ccc(CS(C)(=O)=O)cc5)n4)cc3)cc2)CC1 is at least 7%. false

Exam item: decide whether the reported inhibition for Cc1ccc(O)cc1Nc1ccnc2ccc(S(C)(=O)=O)cc12 is at least 7%. true

----------
So I've got a bunch of compounds here, and I need their inhibition values.
Test system: Serine/threonine-protein kinase B-raf (Homo sapiens), P15056 [V600E];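 note: enzyme inhibition of the BRAF V599E mutant kinase, given as mean percent inhibition, screened within the GSK PKIS kinase inhibitor set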
Sequence (P15056 whole entry V600E): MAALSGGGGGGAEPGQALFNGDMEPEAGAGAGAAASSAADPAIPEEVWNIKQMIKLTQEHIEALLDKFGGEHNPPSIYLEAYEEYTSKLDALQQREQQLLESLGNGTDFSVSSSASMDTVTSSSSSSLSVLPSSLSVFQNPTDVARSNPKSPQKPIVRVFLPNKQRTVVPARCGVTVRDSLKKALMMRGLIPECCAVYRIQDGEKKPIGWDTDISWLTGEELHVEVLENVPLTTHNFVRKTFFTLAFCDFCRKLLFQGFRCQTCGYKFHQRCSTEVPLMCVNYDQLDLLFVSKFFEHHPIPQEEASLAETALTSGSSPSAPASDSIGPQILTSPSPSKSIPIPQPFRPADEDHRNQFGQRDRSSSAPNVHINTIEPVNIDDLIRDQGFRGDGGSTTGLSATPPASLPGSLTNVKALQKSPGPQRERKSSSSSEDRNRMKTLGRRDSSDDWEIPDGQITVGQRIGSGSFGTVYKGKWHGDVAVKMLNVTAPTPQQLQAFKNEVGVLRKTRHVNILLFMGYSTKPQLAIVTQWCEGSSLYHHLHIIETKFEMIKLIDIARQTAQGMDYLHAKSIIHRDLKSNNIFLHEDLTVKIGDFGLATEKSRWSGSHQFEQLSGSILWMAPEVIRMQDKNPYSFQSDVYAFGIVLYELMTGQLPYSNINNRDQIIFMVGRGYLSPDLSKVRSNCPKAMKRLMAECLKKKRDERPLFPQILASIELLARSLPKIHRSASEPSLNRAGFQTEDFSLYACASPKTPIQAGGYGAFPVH
Conditions: at 1 µM
Description: GSK_PKIS: BRAF (V599E mutant) mean inhibition at 1 uM [Nanosyn]

Quickly give me recorded inhibition for C[C@@H](Oc1cc(-n2cnc3ccc(OCC4CCN(C)CC4)cc32)sc1C(N)=O)c1ccccc1C(F)(F)F 0.84%

Quickly give me recorded inhibition for COc1cc(Nc2nccc(-c3cnn4ncccc34)n2)cc(OC)c1 28.7%

Quickly give me recorded inhibition for NS(=O)(=O)c1ccc(NC=C2C(=O)Nc3ccc4ncsc4c32)cc1 61.2%

Quickly give me recorded inhibition for CN(C)CCCn1c(-c2nonc2N)nc2cnccc21 5.34%

Quickly give me recorded inhibition for CN(c1ccc(NC(=O)Nc2ccc(OC(F)(F)F)cc2)cc1)c1ccnc(Nc2cccc(S(N)(=O)=O)c2)n1 18%

Quickly give me recorded inhibition for CN(C)C(=O)O[C@H]1CN[C@H](C#Cc2cc3ncnc(Nc4ccc(OCc5cccc(F)c5)c(Cl)c4)c3s2)C1 5.77%

Quickly give me recorded inhibition for O=C1Nc2ccc(-c3cccnc3)cc2C1=Cc1cc(Br)c(O)c(Br)c1 18.1%

Quickly give me recorded inhibition for Nc1nccc(C#Cc2cncnc2Nc2ccc(OCc3cccc(F)c3)c(Cl)c2)n1 5.29%

Quickly give me recorded inhibition for Cc1ccc(C(=O)NC2CC2)cc1-c1ccc2[nH]ncc2c1 -3.07%

Quickly give me recorded inhibition for O=C(Nc1ccc(Oc2ccc3[nH]c(NC(=O)c4ccco4)nc3c2)cc1)Nc1cc(C(F)(F)F)ccc1F 72.5%

Quickly give me recorded inhibition for Nc1nccc(-c2c(-c3ccc(F)cc3)ncn2CCCN2CCOCC2)n1 7.12%

Quickly give me recorded inhibition for COC(=O)Nc1nc2cc(Oc3ccc(NC(=O)Nc4cccc(Br)c4)cc3)ccc2[nH]1 20.8%

Quickly give me recorded inhibition for c1ccc(Cc2nc3ccc(Nc4ncnc5ccccc45)cc3[nH]2)cc1 5.36%

Quickly give me recorded inhibition for FC(F)(F)c1ccc(-c2nn3ncccc3c2-c2ccnc(Nc3ccc4c(c3)OCCO4)n2)cc1 -1.18%

Quickly give me recorded inhibition for COc1cccc(-n2nc(C)c3c(N/N=C(\C)c4ccncc4)ncnc32)c1 -0.78%

Quickly give me recorded inhibition for Cc1ccc(O)cc1Nc1ccnc2ccc(S(C)(=O)=O)cc12 26%

Quickly give me recorded inhibition for OCc1ccc(-c2nc(-c3ccccn3)c(-c3ccc4c(c3)OCO4)[nH]2)cc1 7.48%

Quickly give me recorded inhibition for NC(=O)c1sc(-n2cnc3ccccc32)cc1OCc1ccccc1Br 3.77%

Quickly give me recorded inhibition for NS(=O)(=O)c1ccc(Nc2cc(-c3cccc(O)c3)n[nH]2)cc1 6.29%

Quickly give me recorded inhibition for N#Cc1cccc(Nc2nccc(-c3cnn4ncccc34)n2)c1 65%

Quickly give me recorded inhibition for Cc1ccc2c(-c3ccnc(Nc4cccc(C(F)(F)F)c4)n3)c(-c3ccccc3)nn2n1 8.85%

Quickly give me recorded inhibition for NC(=O)c1cccc(Nc2nccc(Nc3cccc(F)c3)n2)c1 3.25%

Quickly give me recorded inhibition for Cc1nc(-c2ccccc2)n2nc(NCCCN3CCOCC3)ncc12 4.57%

Quickly give me recorded inhibition for CS(=O)(=O)Nc1cccc(-c2ccc3c(NC(=O)C4CC4)n[nH]c3c2)c1 2.94%

Quickly give me recorded inhibition for Oc1cccc(-c2nc(-c3ccccc3)[nH]c2-c2ccncc2)c1 28.9%

Quickly give me recorded inhibition for COc1cc2ncnc(Nc3ccc(C)c(O)c3)c2cc1OC 9.15%

Quickly give me recorded inhibition for Nc1ccc(C#Cc2cncnc2Nc2ccc(OCc3cccc(F)c3)c(Cl)c2)cc1 3.42%

Quickly give me recorded inhibition for COC(=O)c1ccc2c(c1)C(=Cc1cc(Br)c(O)c(Br)c1)C(=O)N2 18.2%

Quickly give me recorded inhibition for CCn1c(-c2nonc2N)nc2ccc(F)cc21 7.05%

Quickly give me recorded inhibition for Nc1nccc(-c2c(-c3ccc(F)cc3)nn3cc(C(F)(F)F)ccc23)n1 -0.28%

Quickly give me recorded inhibition for NS(=O)(=O)c1ccc(N/N=C2\C(=O)Nc3ccc(Cl)cc32)cc1 4.36%

Quickly give me recorded inhibition for CN1CCN(C(=O)c2ccc(NC(=O)Nc3ccc(N(C)c4ccnc(Nc5ccc(CS(C)(=O)=O)cc5)n4)cc3)cc2)CC1 11.8%

----------
Biological target: Phosphorylase b kinase gamma catalytic chain, liver/testis isoform (Homo sapiens) (UniProt P15735);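 note: values are mean inhibition of PHKG2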
Sequence (whole entry): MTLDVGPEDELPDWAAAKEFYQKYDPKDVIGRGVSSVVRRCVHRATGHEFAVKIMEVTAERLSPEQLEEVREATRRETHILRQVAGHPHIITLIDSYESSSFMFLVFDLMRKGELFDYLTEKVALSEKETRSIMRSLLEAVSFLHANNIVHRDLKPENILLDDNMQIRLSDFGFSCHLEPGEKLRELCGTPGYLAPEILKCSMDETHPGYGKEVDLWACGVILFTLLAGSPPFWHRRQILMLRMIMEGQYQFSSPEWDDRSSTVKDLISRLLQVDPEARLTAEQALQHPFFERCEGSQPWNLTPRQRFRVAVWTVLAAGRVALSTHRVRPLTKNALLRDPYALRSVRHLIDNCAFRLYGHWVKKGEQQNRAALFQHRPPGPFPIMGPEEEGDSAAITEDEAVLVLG
Conditions: at 0.1 µM
Measurement Name: inhibition (%)
Response body: numeric value in %, unit text excluded.

Quickly give me recorded inhibition for COc1cccc(-n2ncc3c(N/N=C/c4ccc(C)cc4)ncnc32)c1 5.73

Quickly give me recorded inhibition for COc1cc2ncnc(Nc3ccc4c(cnn4Cc4ccccc4)c3)c2cc1OC 2.67

Quickly give me recorded inhibition for Cc1ccc2c(-c3ccnc(Nc4cccc(C(F)(F)F)c4)n3)c(-c3ccccc3)nn2n1 4.1

Quickly give me recorded inhibition for Cc1ccc(Nc2ccnc(Nc3cccc(C(N)=O)c3)n2)cc1O 4.75

Quickly give me recorded inhibition for NS(=O)(=O)c1ccc(N/N=C2\C(=O)Nc3ccc(Cl)cc32)cc1 5.9

Quickly give me recorded inhibition for NS(=O)(=O)c1ccc(NC=C2C(=O)Nc3ccc4ncsc4c32)cc1 8.94

Quickly give me recorded inhibition for Cc1cc(O)cc(C)c1/C=C/c1cncc(C(=O)N(C)C)c1 2.55

Quickly give me recorded inhibition for O=S(=O)(CCOCc1ccc(-c2ccc3ncnc(Nc4ccc(OCc5cccc(F)c5)c(Cl)c4)c3c2)o1)c1ccccc1 1.75

Quickly give me recorded inhibition for Nc1ccc(C#Cc2cncnc2Nc2ccc(OCc3cccc(F)c3)c(Cl)c2)cc1 3.68

Quickly give me recorded inhibition for O=C1Nc2ccccc2/C1=C/Nc1ccc2[nH]c(=O)[nH]c2c1 7.44
